- System: Danio rerio larvae (5 dpf)
- assay-protocol: difference in startle response vs DMSO (percentage points); higher = stronger startle than DMSO
- measurement-parameters: 10 µM; exposure time 6 h
Counter-ions that a name gives are not always drawn.
Kindly supply the reported difference in startle response values for the records listed here.
Keep it simple and answer with nothing but the number.

Give the measured difference in startle response of O=C(c1ccccc1)c1ccc2n1CCC2C(=O)O (centres undefined) [Ketorolac (tromethamine salt)] .
5.09

Suppose we examine the compound Cn1c(=O)cc(N2CCC[C@@H](N)C2)n(Cc2ccccc2C#N)c1=O [Alogliptin (benzoate salt)] ; what difference in startle response value has been reported?
5.66

Given the compound CO[C@@]1(NC(=O)Cc2cccs2)C(=O)N2C(C(=O)O)=C(COC(N)=O)CS[C@@H]21 [Cefoxitin (sodium salt)] , what is its reported difference in startle response?
3.22

Bench note: what difference in startle response did NS(=O)(=O)c1cc2c(cc1C(F)(F)F)NCNS2(=O)=O [Hydroflumethiazide] show?
7.8

Find the recorded difference in startle response belonging to CN1CCc2cccc3c2[C@H]1Cc1ccc(O)c(O)c1-3 [(-)-Apomorphine (hydrochloride hydrate)] and report it.
-2.6

I have this compound here, NC(=O)NO [Hydroxyurea] , and I need its recorded difference in startle response.
8.36

Fill blank: measured difference in startle response of the compound `O=C(O)CCc1nc(-c2ccccc2)c(-c2ccccc2)o1` is ____.
-7.37

Give its difference in startle response value. Item: `CCN(CC)C(=S)SSC(=S)N(CC)CC`
-15.9

Quick one: difference in startle response for CN(C)CCC=C1c2ccccc2COc2ccccc21 [Doxepin (hydrochloride)] ?
-1.02

---

Assign difference in habituation to acoustic stimuli to each entry below.
- Test system: Danio rerio larvae (5 dpf)
- assay-protocol: difference in habituation to acoustic stimuli vs DMSO (percentage points); higher = more habituation than DMSO
- measurement-parameters: 10 µM; exposure time 6 h
Where a name gives a salt, the structure may show the parent alone.
Please give only the number in your answer, with no unit.

State the recorded difference in habituation to acoustic stimuli for this entry: `CNC(=O)c1cc(Oc2ccc(NC(=O)Nc3ccc(Cl)c(C(F)(F)F)c3)c(F)c2)ccn1`
-6.09

Need difference in habituation to acoustic stimuli, item CC(=O)[C@]1(O)Cc2c(O)c3c(c(O)c2[C@@H](O[C@H]2C[C@H](N)[C@H](O)[C@H](C)O2)C1)C(=O)c1ccccc1C3=O [Idarubicin (hydrochloride)]
1.34

Look up difference in habituation to acoustic stimuli for this compound: CN(C)c1ccc(O)c2c1C[C@H]1C[C@H]3[C@H](N(C)C)C(O)=C(C(N)=O)C(=O)[C@@]3(O)C(O)=C1C2=O [Minocycline (hydrochloride hydrate)]
8.03

For the compound Cn1nnc(-c2ccc(-c3ccc(N4C[C@H](COP(=O)(O)O)OC4=O)cc3F)cn2)n1 [Tedizolid Phosphate] , what difference in habituation to acoustic stimuli is on record?
2.23

Any idea what difference in habituation to acoustic stimuli was measured for C[C@]12CC[C@@H]3c4ccc(O)cc4C[C@@H](CCCCCCCCC[S+]([O-])CCCC(F)(F)C(F)(F)F)[C@H]3[C@@H]1CC[C@@H]2O (stereo not given in full) ?
1.81

Could you share which difference in habituation to acoustic stimuli value was measured for CC#CCC(C)[C@H](O)/C=C/[C@@H]1[C@H]2C/C(=C/CCCC(=O)O)C[C@H]2C[C@H]1O (stereo not given in full) ?
-1.61

Bench note: what difference in habituation to acoustic stimuli did `CN(C)C(=O)c1cc2cnc(Nc3ccc(N4CCNCC4)cn3)nc2n1C1CCCC1` show?
-2.12

So what's the measured difference in habituation to acoustic stimuli for this one? Nc1ccc(S(N)(=O)=O)cc1 [Sulfanilamide]
-1.65

Entry Clc1ccc2nsnc2c1NC1=NCCN1 [Tizanidine (hydrochloride)] : reported difference in habituation to acoustic stimuli = ?
1.04

So what does the record say about difference in habituation to acoustic stimuli for Cc1c(-c2ccccc2)oc2c(C(=O)OCCN3CCCCC3)cccc2c1=O [Flavoxate (hydrochloride)] ?
-3.99

Please look up its difference in habituation to acoustic stimuli: CN1CCCC(n2nc(Cc3ccc(Cl)cc3)c3ccccc3c2=O)CC1 (stereo not given) [Azelastine (hydrochloride)]
-2.38

What value of difference in habituation to acoustic stimuli has been recorded for this entry: `Cc1cn([C@H]2C=C[C@@H](CO)O2)c(=O)[nH]c1=O`
5.47

Sample c1cc(CN2CCCNCCNCCCNCC2)ccc1CN1CCCNCCNCCCNCC1 [Plerixafor (hydrochloride hydrate)] — what was its difference in habituation to acoustic stimuli?
-5.73

Look at this compound and give its reported difference in habituation to acoustic stimuli. OC(c1cc(C(F)(F)F)nc2c(C(F)(F)F)cccc12)C1CCCCN1 (stereo not given) [Mefloquine (hydrochloride)]
-0.417

Could you tell me which difference in habituation to acoustic stimuli is on file for CC(=O)OC(C)C[N+](C)(C)C (stereo not drawn) [Acetyl-β-methylcholine (chloride)] ?
15

---

- Test system: Danio rerio larvae (5 dpf)
- assay-protocol: difference in habituation to acoustic stimuli vs DMSO (percentage points); higher = more habituation than DMSO
- measurement-parameters: 10 µM; exposure time 6 h
Where a name gives a salt, the structure may show the parent alone.
Record form. Attribute: difference in habituation to acoustic stimuli. Fill in for each entry.
Could you respond with only the numeric value?

Item CC1(C)S[C@@H]2[C@H](NC(=O)[C@H](N)c3ccc(O)cc3)C(=O)N2[C@H]1C(=O)O [Amoxicillin (hydrate)] has what recorded difference in habituation to acoustic stimuli?
5.1

Which value of difference in habituation to acoustic stimuli has been reported for CCC(=O)O[C@]1(C(=O)CCl)[C@@H](C)C[C@H]2[C@@H]3CCC4=CC(=O)C=C[C@]4(C)[C@@]3(F)[C@@H](O)C[C@@]21C [Clobetasol Propionate] in the records?
0.438

Look up difference in habituation to acoustic stimuli: `Cc1ccnc2c1NC(=O)c1cccnc1N2C1CC1`
-2.11

Fill in: difference in habituation to acoustic stimuli of CNCC(O)c1ccc(OC(=O)C(C)(C)C)c(OC(=O)C(C)(C)C)c1 (centres undefined) [Dipivefrin (hydrochloride)] is ___
-2.07

---

- Test system: Danio rerio larvae (5 dpf)
- assay-protocol: difference in startle response vs DMSO (percentage points); higher = stronger startle than DMSO
- measurement-parameters: 10 µM; exposure time 6 h
Counter-ions that a name gives are not always drawn.
Values of difference in startle response greater than or equal to 1 map to true; values below map to false.

Textbook exercise: given the entry CN(C)CCC=C1c2ccccc2C=Cc2ccccc21 [Cyclobenzaprine (hydrochloride)] , state whether its difference in startle response is greater than or equal to 1.
false

Please tell me: is the molecule Cn1cnc2c(F)c(Nc3ccc(Br)cc3F)c(C(=O)NOCCO)cc21 [Binimetinib] at or over 1 in terms of difference in startle response?
false

difference in startle response >= 1 for CN(C)CCOC(C)(c1ccccc1)c1ccccn1 (configuration not stated) [Doxylamine (succinate)] ?
false

Could you tell me if the measured difference in startle response of CC(=O)Oc1cc2c(s1)CCN(C(C(=O)C1CC1)c1ccccc1F)C2 (configuration not stated) [Prasugrel] reaches 1 or more?
false

Is the recorded value of difference in startle response equal to or greater than 1 for this molecule? C[N+](C)(C)CCOC(N)=O [Carbamoylcholine (chloride)]
true

Assess whether reported difference in startle response for Cc1cccc(C)c1OCC(C)N (configuration not stated) [Mexiletine (hydrochloride)] sits at 1 or higher.
true

Does difference in startle response meet or surpass 1 for CCN1CC(CCN2CCOCC2)C(c2ccccc2)(c2ccccc2)C1=O (configuration not stated) [Doxapram (hydrochloride hydrate)] ?
false

Check the entry CC[C@@H](CO)NCCN[C@@H](CC)CO [Ethambutol (hydrochloride)] : does difference in startle response equal or exceed 1?
true

Exam item: decide whether the reported difference in startle response for CCOCCn1c(N2CCCN(C)CC2)nc2ccccc21 [Emedastine (fumarate)] is at least 1.
true

Quick check: does O=C(NCC1CCCCN1)c1cc(OCC(F)(F)F)ccc1OCC(F)(F)F (configuration not stated) [Flecainide (acetate)] have difference in startle response greater than or equal to 1?
false

Confirm if difference in startle response reported for the molecule CCCN[C@H]1CCc2nc(N)sc2C1 [(S)-Pramipexole (hydrochloride)] is 1 or above.
false

Say whether Nc1cc(-c2ccncc2)c[nH]c1=O [Amrinone] shows difference in startle response of 1 or more.
true

Evaluate Fc1ccc([C@@H]2CCNC[C@H]2COc2ccc3c(c2)OCO3)cc1 [Paroxetine (hydrochloride)] : difference in startle response at minimum 1?
false

Does the reported difference in startle response for CCCC(=O)O[C@]1(C(=O)COC(C)=O)CC[C@H]2[C@@H]3C[C@H](F)C4=CC(=O)C=C[C@]4(C)[C@@]3(F)[C@@H](O)C[C@@]21C [Difluprednate] fall at or above the 1 mark?
true

Determine whether this molecule has difference in startle response no lower than 1: CN(Cc1cnc2nc(N)nc(N)c2n1)c1ccc(C(=O)N[C@@H](CCC(=O)O)C(=O)O)cc1 [Methotrexate (hydrate)]
true

Assess whether reported difference in startle response for CNC(=O)c1cnn(-c2nc(N)c3ncn([C@@H]4O[C@H](CO)[C@@H](O)[C@H]4O)c3n2)c1 [Regadenoson] sits at 1 or higher.
false

Hi team, for S=c1nc[nH]c2nc[nH]c12 [6-Mercaptopurine (hydrate)] , is the recorded difference in startle response at or above 1?
true
